Target: T1, CRF2R
T1 sequence (Q13324 whole entry, species assumed, looked up): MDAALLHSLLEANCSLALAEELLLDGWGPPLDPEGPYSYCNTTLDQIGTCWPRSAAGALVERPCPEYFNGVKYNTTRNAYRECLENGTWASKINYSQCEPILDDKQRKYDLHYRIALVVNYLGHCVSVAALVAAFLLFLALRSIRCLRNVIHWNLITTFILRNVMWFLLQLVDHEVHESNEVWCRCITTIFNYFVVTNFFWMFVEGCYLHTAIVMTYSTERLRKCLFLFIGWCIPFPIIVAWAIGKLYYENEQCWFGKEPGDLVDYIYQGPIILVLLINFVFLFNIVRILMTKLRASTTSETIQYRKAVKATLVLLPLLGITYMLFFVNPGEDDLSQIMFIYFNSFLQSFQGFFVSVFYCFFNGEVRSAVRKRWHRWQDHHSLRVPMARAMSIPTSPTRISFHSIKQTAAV
Assay: cell-based or functional assay
Ends that are not written are not given here.
Class (required): determined from CRF2R EC50; valid ranges are low interval (below 8 nM), middle interval (8 nM to below 20 nM), high interval (20 nM or more)

Sort into band: ZGPPISIDLPFFLLRKVIEIEKQEKEKQQAANNALLLATI (C-terminal amide) [SEQ ID NO 317]
middle interval

Also ZGPPISIDLPFFLLRKMIEIEKQEKEKQQAANNALLLATI (C-terminal amide) [SEQ ID NO 319] , if possible.
middle interval

Also DNPSLSIDLPLFLLRTLLELEKTQSQRERAEQNARIFDRV-NH2 [SEQ ID NO 336] , if possible.
middle interval

Also IVLSLDVSIGLLQILLEQARARAAREQATTNARILARV-NH2 [SEQ ID NO 370] , if possible.
high interval

Also ZGPPISIDLPLALLRKMIEIEKQEKEKQQAANNRLLLDTI (C-terminal amide) [SEQ ID NO 308] , if possible.
low interval

Also ZGPPISIDLPLQLLEKMIEIEKQEKEKQQATTNARLLDRV (C-terminal amide) [SEQ ID NO 247] , if possible.
middle interval

Also ZGPPISIDVPYWLLRKVIEIEKQEKEKQQAANNARLLDTI (C-terminal amide) [SEQ ID NO 372] , if possible.
middle interval

Also ZGPPISIDLPFQLLRKVIEIEKQEKEKQQAANNALLLATI (C-terminal amide) [SEQ ID NO 352] , if possible.
middle interval

Also NDDPPISIDLPFHLLRNMIEMARIENEREQAGLNAKYLAEV-NH2 [SEQ ID NO 262] , if possible.
high interval

Also ZGPPISIDVPIYLLRKVIEIEKQEKEKQQAANNARLLARI (C-terminal amide) [SEQ ID NO 379] , if possible.
high interval

Also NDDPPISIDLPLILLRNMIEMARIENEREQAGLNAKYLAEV-NH2 [SEQ ID NO 269] , if possible.
high interval

Also PSLSIDLPLFLLRTLLELEKTQSQRERAEQNARIFARV-NH2 [SEQ ID NO 331] , if possible.
middle interval

Also ZGPPISIDLPWWLLRKMIEIEKQEKEKQQAANNRLLLDTI (C-terminal amide) [SEQ ID NO 216] , if possible.
middle interval

Also ZGPPISIDLPIFLLRKMIEIEKQEKEKQQAANNARLLARI (not fully specified; C-terminal amide) [SEQ ID NO 282] , if possible.
high interval

Also ZGPPISIDVPLQLLRKVIEIEKQEKEKQQAANNARLLARI (C-terminal amide) [SEQ ID NO 381] , if possible.
middle interval

Also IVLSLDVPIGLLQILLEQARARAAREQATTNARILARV-NH2 [SEQ ID NO 354] , if possible.
low interval

Also DNPSLSIDVPLLLLRTLLELEKTQSQRERAEQNARIFARV-NH2 [SEQ ID NO 384] , if possible.
low interval

Also ZGPPISIDLPYFLLRKMIEIEKQEKEKQQAANNRLLLDTI (C-terminal amide) [SEQ ID NO 220] , if possible.
low interval

Also ZGPPISIDLPLYLLRKMIEIEKQEKEKQQAANNALLLDTI (C-terminal amide) [SEQ ID NO 244] , if possible.
middle interval

Cited source for all entries: patent US20030148958A1
